# Tested on: DU-145
# procedure-details: NCI tumour cell line growth inhibition, 48 h
Calls of active or inactive are those of the source. No stated cut-off is given here; in the data, active = GI50 up to about 1.1 µM and inactive = higher.
Pick from active, inactive when you respond.

Query: # lookup: test call for CCOP(=O)(OCC)/C(C#N)=C\c1ccc(OC(C)=O)cc1
Result: inactive

Query: And what about the compound O=C(CSCC(=O)N/N=C\c1ccc(F)cc1F)N/N=C\c1ccc(F)cc1F ?
Result: inactive

Query: For CN1C2CCC1C(CO)C(=O)C2 (centres undefined) then?
Result: inactive

Query: Entry CC(C)C(C/C=C1/CC(CO)(COC(=O)C2CCCCC2)OC1=O)C(C)C (centres undefined) please
Result: inactive

Query: Next: CCOC(=O)c1cccc([N+](=O)[O-])c1N
Result: inactive

Query: What do we get for CCOC(=O)Nc1cc2c(c(N)n1)N=C(c1ccccc1)CN2 ?
Result: active

Query: Next compound: CSc1ncnc2c1ncn2C1OC(CO)C(O)OC1O (centres undefined)
Result: active

Query: Could you do the same for C=CCNC(=S)N/C=C(\C(=O)OCC)C(=O)C(=O)OCC , please?
Result: inactive

Query: Next: C/C(=N\NC(=S)N1CCCCCC1)c1ccccn1
Result: active

Query: Same question for CCN(CC)c1ccc2cc(-c3nnc(-c4ccccc4O)o3)c(=O)oc2c1 please.
Result: inactive

Query: One more compound: COC(=O)c1cnn2c1ccc1ccccc12
Result: inactive

Query: Same thing, different compound: Cc1cc(=O)oc2cc(OCC(O)COC(C)C)ccc12 (centres undefined)
Result: inactive

Query: Next up: O=S(=O)(/N=c1/[nH]c2ccccc2n1S(=O)(=O)c1ccccc1)c1ccccc1
Result: inactive

Query: Let us now turn to Nc1nc(Cl)cc(NCC2(CO)CC(CCCCc3ccccc3)C2)n1 (centres undefined)
Result: inactive

Query: Record: C=C(CN(C)C)C(=O)c1ccc(C)cc1C
Result: inactive

Query: Cool, now CSc1cc(Cl)c(C)cc1S(=O)(=O)NC(=O)NNc1ccc(C)cc1
Result: inactive

Query: Subsequent entry: O=C(c1ccsc1)c1nccc2c1cnc1ccccc12
Result: inactive

Query: And for CCOC(=O)c1c2c(n(-c3ccc(OC)cc3)c1C)C(=O)C(=O)c1ccccc1-2 ?
Result: inactive

Query: What do you get for O=C(C/C(=N/O)C(=O)NC1=C(Cl)C(=O)c2ccccc2C1=O)CC(c1ccccc1)c1c(O)c2ccccc2oc1=O (centres undefined) ?
Result: inactive

Query: Proceed to NCc1ccccc1.O=C(O)NCc1ccccc1
Result: inactive

Query: What would you report for CC1CN=C(N(C)C(=O)Nc2ccc(Cl)c(Cl)c2)S1 (centres undefined) ?
Result: inactive

Query: Can you check Nc1ncnc2c1ccn2C1OC2COP(=O)(O)OC2C1O (centres undefined) next?
Result: active

Query: Now give it for CCN1CCN(c2nc3ccc([N+](=O)[O-])cc3nc2C(=O)c2ccccc2)CC1 too.
Result: inactive

Query: And for Nc1ccc(C(=O)c2cn(CCN3CCOCC3)c3ccccc23)c2ccccc12 ?
Result: inactive

----------
# System: NCI-H23
# procedure-details: NCI tumour cell line growth inhibition, 48 h
Activity calls are given as the source filed them. No stated cut-off is given here; in the data, active = GI50 up to about 1.1 µM and inactive = higher.
readout: GI50

Query: Which GI50 value is on record for COc1ccc(C2Oc3c(cccc3OC)C=C2[N+](=O)[O-])cc1OC (stereo not given) ?
Result: 4.41 µM (inactive)

Query: # repeat for O=C1CCC(c2ccccc2)(c2ccccc2)CC1
Result: 57.7 µM (inactive)

Query: What about this compound? CC(N)C(=O)c1ccc(O)cc1 (stereo not given)
Result: > 100 µM (inactive)

Query: Proceed to NCCN1C(=O)CN=C(c2ccc(Cl)cc2)c2cc(Cl)ccc21
Result: 18.1 µM (inactive)

Query: Note, next up: c1ccc2nc(-c3ccc4c(c3)OCO4)ccc2c1
Result: 47.1 µM (inactive)

Query: Try O=C(CC1C(=O)Nc2ccccc2S1(=O)=O)Nc1cccc(Cl)c1 (stereo not given) next.
Result: 18.9 µM (inactive)

Query: Next up: CC(=O)c1ccc2c(c1)N(CCCN1CCN(CCO)CC1)c1ccccc1C2
Result: 15.8 µM (inactive)

Query: Then Cc1cc(S(=O)(=O)O)c(NC(=O)c2oc3cc(O)ccc3c(=O)c2C)cc1Cl ?
Result: > 100 µM (inactive)

Query: # iterate: C=CCN(c1cc(OC)c2[nH]c(C(=O)OCC)c(C)c2c1[N+](=O)[O-])S(C)(=O)=O
Result: 28.4 µM (inactive)

Query: What do we get for COc1cc2c(SCCN(C)C)nc3ccccc3c2c2ccccc12 ?
Result: 5.46 µM (inactive)

Query: Field entry: CCOC(=O)N[C@@H]1C(CC(=O)OC)O[C@H]2OC(C)(C)O[C@H]21 (stereo not given in full)
Result: > 100 µM (inactive)

Query: Quick one: COc1ccc(/N=N/C(=N\c2ccc(Cl)cc2)c2ccc(N(CCC#N)CCC#N)cc2)cc1
Result: 40.9 µM (inactive)

Query: Next compound up: Cc1ccc(O)c(/N=N/c2ccc(S(=O)(=O)O)cc2)n1
Result: > 100 µM (inactive)

Query: Check C=C1C[C@@H]2O[C@H]3[C@H]4[C@@H](C[C@@H](C)[C@@H](OC(C)=O)[C@H]42)[C@@H](C)CO[C@@]3(C)[C@H](OC(=O)CCCCCCC)CC1=O too.
Result: 20.6 µM (inactive)

Query: Same lookup for Cc1cc(C)c2c(O)c(S(=O)(=O)c3ccc(Cl)cc3)c(=O)oc2c1 , please.
Result: 84.1 µM (inactive)

----------
# Test system: UACC-62
# procedure-details: NCI tumour cell line growth inhibition, 48 h
Calls of active or inactive are those of the source. No stated cut-off is given here; in the data, active = GI50 up to about 1.1 µM and inactive = higher. Square brackets hold non-standard residues; d marks the D form. Peptide text beside a SMILES is read from it. * marks the point of attachment. ξ: configuration not given here. ξF = NC(Cc1ccccc1)C(=O)O; Cbz = O=C(OCc1ccccc1)*; Aib = CC(C)(N)C(=O)O
Provide the recorded GI50 for the entries that follow.

Query: Sample Cc1ccccc1Nc1nc(NNC(=O)Cc2ccccc2)nc(NNC(=O)c2ccncc2)n1 — what was its GI50?
Result: > 10 µM (inactive)

Query: Now consider COc1ccc(/N=N/C(=N\c2ccc(Cl)cc2)c2ccc(N(CCC#N)CCC#N)cc2)cc1 and answer again.
Result: 1.49 µM (inactive)

Query: Please do the same for Cc1cc(/N=C/c2ccc(Cl)cc2)n(-c2ccccc2)n1 as well.
Result: 54.2 µM (inactive)

Query: Request: CC(C)(C)C#COC(=O)c1ccccc1
Result: > 100 µM (inactive)

Query: And then O=C(O)CCSC(=O)Nc1ccc(/N=N/c2ccccc2)cc1 , what is it?
Result: 59.4 µM (inactive)

Query: Same thing, different molecule: CC(C)(NC(=O)OCc1ccccc1)C(=O)NC(Cc1ccccc1)C(=O)O (stereo unspecified) (Cbz-[Aib]-[ξF]-OH)
Result: > 100 µM (inactive)

Query: # repeat for NC(CCc1ncc(-c2ccccc2)s1)C(=O)O (stereo unspecified)
Result: > 100 µM (inactive)

Query: Another molecule: CN(C)CCn1c(=O)c2ccc3c4c(nn3CCN(C)C)c3ccccc3n(c1=O)c24
Result: 0.564 µM (active)

Query: Follow-up entry: NCCN1C(=O)CN=C(c2ccc(Cl)cc2)c2cc(Cl)ccc21
Result: 17.9 µM (inactive)

Query: What would you report for Cn1c(=O)c2[nH]c(N/N=C3/SCC(=O)N3Cc3ccccc3)nc2n(C)c1=O ?
Result: > 100 µM (inactive)

Query: What do you have for O=C(C#Cc1ccccc1)Nc1ccccc1CC(c1c[nH]c2ccccc12)c1c[nH]c2ccccc12 ?
Result: 7.5 µM (inactive)

----------
I'd appreciate it if you could supply GI50 values for the items below.
# System: MCF7
# procedure-details: NCI tumour cell line growth inhibition, 48 h
The source made the active and inactive calls. Cut-off read from the data, not from the text of the source: active = GI50 up to about 1.1 µM and inactive = higher.

Query: Entry CN1C2CCC1C(CO)C(=O)C2 (configuration not stated) has what GI50?
Result: 22.6 µM (inactive)

Query: Repeat for the following molecule: CC(O)C1(CNc2cc(Cl)nc(N)n2)CCC1 (configuration not stated)
Result: > 100 µM (inactive)

Query: And then O=C(/C=C/c1ccc(O)c(-c2cc(C(=O)/C=C/c3ccc(O)cc3)c(O)cc2O)c1)c1ccc(O)cc1O [RHUSCHALCONE VI] , what is it?
Result: 20.2 µM (inactive)

Query: Would you kindly repeat that for O=C(c1cc(Cl)ccc1Cl)N1CCN(c2ccc(Cl)c(Cl)c2)CC1 ?
Result: 8.67 µM (inactive)

Query: // same read-out, input: Cc1ccc(CC(=O)Nc2ccc(NC(=O)CNC(=O)/C=C/c3ccc(-c4ccccc4)cc3)cc2C(=O)c2ccccc2)cc1
Result: 1.82 µM (inactive)

Query: Same for COC(=O)CNC(=O)CNC(=O)CSc1nnc(COc2ccc(Cl)cc2)n1-c1ccccc1
Result: > 100 µM (inactive)

Query: Same thing, different molecule: COc1ccc(C2Oc3c(cccc3OC)C=C2[N+](=O)[O-])cc1OC (configuration not stated)
Result: 4.12 µM (inactive)
